Reference for the values: patent US20250145695A1

study system: T1, soluble TDP-43 (human, UniProt Q13148 1-414)
T1 construct: also called soluble full-length TDP-43; FL TDP-43
T1 sequence (Q13148 whole entry): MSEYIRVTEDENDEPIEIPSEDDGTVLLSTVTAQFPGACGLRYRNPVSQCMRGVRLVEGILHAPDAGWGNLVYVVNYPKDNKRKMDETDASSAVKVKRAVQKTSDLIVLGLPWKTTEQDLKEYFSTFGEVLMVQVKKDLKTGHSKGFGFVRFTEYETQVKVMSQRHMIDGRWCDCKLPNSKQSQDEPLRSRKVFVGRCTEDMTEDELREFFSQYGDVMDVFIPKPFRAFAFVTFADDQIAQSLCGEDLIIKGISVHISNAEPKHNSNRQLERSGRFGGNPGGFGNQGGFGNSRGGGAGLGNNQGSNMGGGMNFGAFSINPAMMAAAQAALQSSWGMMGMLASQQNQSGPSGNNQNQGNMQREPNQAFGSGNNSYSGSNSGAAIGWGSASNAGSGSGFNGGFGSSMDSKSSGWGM
assay overview: SPR Biacore 8K, soluble TDP-43 immobilized on CM5, mAb injected, single-cycle kinetics

binder	display unit	Kd
hACI-7069-633B12-Ab1_H33L26 (antibody, V domains shown) VH: EVQLVQSGAEVKKPGATVKISCKVSGFTFTEYSMHWVQQAPGKGLEWMGGINPNNGGTSYNQKFQGRVTITADTSTDTAYMELSSLRSEDTAVYYCARESWGQGTTVTVSS VL: DIVMTQSPLSLPVTPGEPASISCKSSQSLLHSDAKTYLNWLLQKPGQSPQRLIYLVSKLDSRVPDRFSGSGSGTDFTLKISRVEAEDVGVYYCFQGTHFPHTFGQGTKLEIK	nM	0.22
hACI-7069-633B12-Ab1_H32L27 (antibody, V domains shown) VH: EVQLVQSGAEVKKPGATVKISCKVSGFTFTEYSMHWVQQAPGKGLEWMGGINPQNAGTSYNQKFQGRVTITADTSTDTAYMELSSLRSEDTAVYYCARESWGQGTTVTVSS VL: DIVMTQSPLSLPVTPGEPASISCKSSQSLLHSDGKTYLNWLLQKPGQSPQRLIYLVSKLDSRVPDRFSGSGSGTDFTLKISRVEAEDVGVYYCFQGTHFPHTFGQGTKLEIK	nM	0.143
hACI-7069-633B12-Ab1_H33L24 (antibody, V domains shown) VH: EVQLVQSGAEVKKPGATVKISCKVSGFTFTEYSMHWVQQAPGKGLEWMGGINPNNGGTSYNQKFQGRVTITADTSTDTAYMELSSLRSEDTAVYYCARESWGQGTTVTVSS VL: DIVMTQSPLSLPVTPGEPASISCKSSQSLLHSDGKTYLNWLLQKPGQSPQRLIYLVSKLDSRVPDRFSGSGSGTDFTLKISRVEAEDVGVYYCWQGTHFPHTFGQGTKLEIK	nM	0.471
